target: human indoleamine 2,3-dioxygenase (hIDO) (Homo sapiens); assay: Stopped-flow binding kinetics; conditions: Kd, Fe^3+–CN^− + Trp; calculated from koff/kon
measure-name: pKd
Entry type: numeric. Quantity: pKd, the -log10 of concentration in molar units.

Query block: Observed pKd on human indoleamine 2,3-dioxygenase (hIDO) (Homo sapiens) for N[C@@H](Cc1c[nH]c2ccccc12)C(=O)O , please.
Result block: 4.64

---

target: human indoleamine 2,3-dioxygenase (hIDO) (Homo sapiens, UniProt P14902); test: Stopped-flow binding kinetics; conditions: Kd, Fe^3+ + Trp; calculated from kinetic constants
Sequence (P14902 whole entry): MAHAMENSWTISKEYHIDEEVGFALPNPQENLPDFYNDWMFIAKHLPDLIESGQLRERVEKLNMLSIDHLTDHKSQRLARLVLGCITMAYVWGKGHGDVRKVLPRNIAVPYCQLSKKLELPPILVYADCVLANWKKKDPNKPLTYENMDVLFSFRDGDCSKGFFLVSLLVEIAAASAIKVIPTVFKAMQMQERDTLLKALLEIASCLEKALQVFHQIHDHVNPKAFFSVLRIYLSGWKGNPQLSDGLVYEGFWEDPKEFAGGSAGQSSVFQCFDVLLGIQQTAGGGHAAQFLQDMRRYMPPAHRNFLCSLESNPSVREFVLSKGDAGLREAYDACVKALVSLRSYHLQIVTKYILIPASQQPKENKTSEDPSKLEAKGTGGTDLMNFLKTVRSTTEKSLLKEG
measure-name: pKd
Entry type: numeric. Quantity: pKd, the -log10 of concentration in molar units.

Query block: Quick check: pKd of N[C@@H](Cc1c[nH]c2ccccc12)C(=O)O ?
Result block: 3.00
